# System: chickweed
# measurement protocol: Test B preemergence/postemergence greenhouse plant response rating 0 to 10
# Type: in vivo, Stellaria media
# applied conditions: Rate 200 g/ha, PREEMERGENCE; 0 to 10 scale
property label: Plant response rating, Chickweed
Please reply with the value in numeric form only.

Sample records with Plant response rating, Chickweed:
- CCS(=O)(=O)Oc1cc(-c2nn3c(c2Cl)CCCC3)c(F)cc1Cl: 9
- CC(C)OC(=O)COc1cc(-c2nn3c(c2Cl)CCCC3)c(F)cc1Cl: 5
- COc1cc(-c2nn3c(c2Cl)CCCC3)c(F)cc1Cl: 7
- COC(=O)c1cc(-c2nn3c(c2Cl)CCCC3)c(F)cc1Cl: 10
- C=CCOc1cc(-c2nn3c(c2Br)CCCC3)c(F)cc1Cl: 9
- Fc1cc(Cl)c(OCc2ccccc2)cc1-c1nn2c(c1Cl)CCCC2: 2
- Clc1ccc(-c2nn3c(c2Cl)CCCC3)c(Cl)c1: 9
- C#CCOc1cc(-c2nn3c(c2Br)CCCC3)c(F)cc1Cl: 10

Okay, next one:
Q: Which measured Plant response rating, Chickweed value corresponds to C=CCN1C(=O)COc2cc(F)c(-c3nn4c(c3Br)CCCC4)cc21 ?
A: 10
